# system tested: T1, SARS-CoV-2 S trimer (SARS-CoV-2, UniProt P0DTC2 16-1213)
# T1 construct: also called SARS-CoV-2 S protein; S homotrimer protein
# run description: monoclonal phage ELISA, drawn table of OD450 values
Overview of reported OD450 across a group of binders:

binder	OD450
NCI-CoV-1B5 (VHH) VHH: DVQLVESGGGSVQAGGSLRLSCTGSRYTYSTYCMGWFRQAPGKEEEAVAIINSGGGEPYYGDSVKGRFTISQDRAKNTVYLQMDGLQPDDTAIYYCVAADSHNSRCYLGRSYVNYWGQGTQVTVSS	0.67
NCI-CoV-1A7 (VHH) VHH: QVQLVESGGGLVQPGGSLRLSCVASGFTFSSVDMSWVRQDPRKGLEWVSGINSGGGSTSYADSVKGQFTISRDNAKNTLYLEMNNLKPEDTAVYYCATGLAASGVWGQGTQVTVSS	0.67
NCI-CoV-1A10 (VHH) VHH: AVQLVDSGGGSVQAGGSLRLSCAASGFTGSNYCLGWFRQAPGKEREGVAVIERDTGGTTYPNSLEGRFTIAQDNAKNMVYLHMRNLQPEDTGTYTCAAARNGDSFGGFTFWGQGTQVTVSS	0.63
NCI-CoV-2F7 (VHH) VHH: QVKLEESGGGSVQSGGSLRLSCTVSRDTNTNINRCMGWFRQAPGKGLETVATINRDGTNTYYTDAVKGRFTISQDNVKNTVYLQMNNLTPEDTGTYICNAMGRGSGSRCDNWDPNYWGQGTQVTVSS	0.8
